Reference source for all entries: patent EP4407316A1

System: HAP1 cells
TEST DETAILS: Live cell count to establish selinexor IC values for CRISPR screening
Assay type: cell-based
MEASUREMENT PARAMETERS: Homo sapiens, 96 h, live cells counted after four days and compared to untreated control flask

# MOLECULE, IC50
rows = [
    ("O=C(/C=C\\n1cnc(-c2cc(C(F)(F)F)cc(C(F)(F)F)c2)n1)NNc1cnccn1 [selinexor]", "100 nM"),
]
